- measurement protocol: Half life at a dose of 1.5 mg/kg
- Format: ADME, organism-based
- Set-up: dose 1.5 mg/kg
- run conditions: in vivo
readout name: half-life (h)
Give bare numbers, in h.

// query half-life value for entry `COc1ccc(-c2cc(-c3nc(C)cs3)c(=O)n(C)c2-c2ccnnc2)cc1` 1.1

====

- system under test: GABA-A receptor; alpha-3/beta-3/gamma-2 (Homo sapiens, UniProt P18507+P28472+P34903)
- Sequence (P18507 whole entry): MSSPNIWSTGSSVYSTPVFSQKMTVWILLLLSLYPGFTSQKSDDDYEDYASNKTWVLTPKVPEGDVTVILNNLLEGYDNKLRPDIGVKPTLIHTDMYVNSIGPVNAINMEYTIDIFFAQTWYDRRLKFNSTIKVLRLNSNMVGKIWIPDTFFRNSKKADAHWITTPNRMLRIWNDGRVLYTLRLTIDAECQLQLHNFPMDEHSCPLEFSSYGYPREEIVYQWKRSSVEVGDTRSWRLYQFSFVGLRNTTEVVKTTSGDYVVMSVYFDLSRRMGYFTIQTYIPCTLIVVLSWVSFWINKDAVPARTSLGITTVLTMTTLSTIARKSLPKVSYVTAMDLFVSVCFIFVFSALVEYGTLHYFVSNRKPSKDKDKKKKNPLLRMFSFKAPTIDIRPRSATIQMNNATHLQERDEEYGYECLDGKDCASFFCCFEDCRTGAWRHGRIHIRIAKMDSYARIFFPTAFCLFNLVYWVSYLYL
- Sequence (P28472 whole entry): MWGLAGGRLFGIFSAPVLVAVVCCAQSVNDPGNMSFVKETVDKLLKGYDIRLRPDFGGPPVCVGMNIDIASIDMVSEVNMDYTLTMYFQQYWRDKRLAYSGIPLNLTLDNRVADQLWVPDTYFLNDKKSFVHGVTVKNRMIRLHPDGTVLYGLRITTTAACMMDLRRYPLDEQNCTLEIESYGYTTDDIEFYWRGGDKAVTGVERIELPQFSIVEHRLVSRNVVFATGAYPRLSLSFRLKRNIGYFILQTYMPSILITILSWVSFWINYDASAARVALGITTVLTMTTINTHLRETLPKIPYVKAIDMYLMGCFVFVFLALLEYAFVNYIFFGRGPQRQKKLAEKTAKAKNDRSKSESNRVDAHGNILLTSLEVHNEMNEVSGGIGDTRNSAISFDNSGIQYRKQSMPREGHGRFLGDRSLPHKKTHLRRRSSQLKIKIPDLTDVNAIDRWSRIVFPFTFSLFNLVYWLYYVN
- Sequence (P34903 whole entry): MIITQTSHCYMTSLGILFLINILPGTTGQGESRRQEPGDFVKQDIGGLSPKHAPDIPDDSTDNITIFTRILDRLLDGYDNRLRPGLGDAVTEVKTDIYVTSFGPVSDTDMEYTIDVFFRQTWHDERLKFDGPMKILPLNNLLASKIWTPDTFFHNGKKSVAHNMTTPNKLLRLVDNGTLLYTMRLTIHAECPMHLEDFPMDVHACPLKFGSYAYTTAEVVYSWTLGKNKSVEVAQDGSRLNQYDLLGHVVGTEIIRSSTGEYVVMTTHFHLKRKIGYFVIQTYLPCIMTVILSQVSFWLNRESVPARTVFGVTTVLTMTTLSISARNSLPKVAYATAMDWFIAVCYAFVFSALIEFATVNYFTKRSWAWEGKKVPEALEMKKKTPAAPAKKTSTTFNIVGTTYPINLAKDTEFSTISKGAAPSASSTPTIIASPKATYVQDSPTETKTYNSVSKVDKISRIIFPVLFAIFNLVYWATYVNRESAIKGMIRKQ
- measurement protocol: Binding affinity by displacement of [3H]Ro-151788 from recombinant human gamma-aminobutyric-acid A receptor alpha3,beta3,gamma2 stably expressed in L cells
pKi: −log10 of the molar value.
Please use T whenever pKi is not below 8, and F whenever it is.

Entry `COc1ccc(-c2cc(-c3nc(C)cs3)c(=O)n(C)c2-c2cccnc2)cc1` : is its pKi no less than 8? T

Entry `COc1ccc(-c2cc(C#N)c(=O)n(C)c2-c2ccc(N(C)C)cc2)cc1` : is its pKi no less than 8? F

Entry `COc1ccc(-c2cc(-c3noc(C4CC4)n3)c(=O)n(C)c2-c2ccncc2)cc1` : is its pKi no less than 8? F

Entry `COc1ccc(-c2cc(-c3nc(C)cs3)c(=O)n(C)c2-c2ccnnc2)cc1` : is its pKi no less than 8? T

Entry `COC(=O)c1cc(-c2ccc(OC)cc2)c(-c2ccccn2)n(C)c1=O` : is its pKi no less than 8? F

Entry `COc1ccc(-c2cc(-c3ccccc3)c(=O)n(C)c2-c2ccncc2)cc1` : is its pKi no less than 8? F

Entry `COc1ccc(-c2cc(-c3cc(C)cs3)c(=O)n(C)c2-c2ccncc2)cc1` : is its pKi no less than 8? F

Entry `Cc1csc(-c2cc(-c3ccc(F)cc3)c(-c3ccncc3)n(C)c2=O)n1` : is its pKi no less than 8? T

Entry `COc1ccc(-c2cc(-c3noc(C)n3)c(=O)n(C)c2-c2ccncc2)cc1` : is its pKi no less than 8? F

Entry `COc1ccc(-c2cc(C#N)c(O)nc2-c2ccc(N(C)C)cc2)cc1` : is its pKi no less than 8? F

Next:
Entry `COc1ccc(-c2cc(C#N)c(OC)nc2-c2ccc(N(C)C)cc2)cc1` : is its pKi no less than 8? F

Entry `COC(=O)c1cc(-c2ccc(OC)cc2)c(-c2cccnc2)n(C)c1=O` : is its pKi no less than 8? F

Entry `COC(=O)c1cc(-c2ccc(OC)cc2)c(-c2ccncc2)n(C)c1=O` : is its pKi no less than 8? F

====

- measurement protocol: Maximum time at a dose of 2.0 mg/kg
- Assay type: ADME, organism-based
- Design: dose 2 mg/kg
- run conditions: in vivo
readout name: Tmax (min)
Numbers only, in min.

// query Tmax value for entry `COc1ccc(-c2cc(-c3nc(C)cs3)c(=O)n(C)c2-c2ccncc2)cc1` 18

====

- measurement protocol: Partition coefficient (logD)
- Type: physicochemical
- run conditions: octanol/water
readout name: logD
Answers are plain numbers.

// query logD value for entry `COc1ccc(-c2cc(-c3nc(C)cs3)c(=O)n(C)c2-c2ccncc2)cc1` 3.6

====

- system under test: GABA-A receptor; alpha-5/beta-3/gamma-2 (Homo sapiens, UniProt P18507+P28472+P31644)
- Sequence (P18507 whole entry): as the sequence (P18507 whole entry) above
- Sequence (P28472 whole entry): as the sequence (P28472 whole entry) above
- Sequence (P31644 whole entry): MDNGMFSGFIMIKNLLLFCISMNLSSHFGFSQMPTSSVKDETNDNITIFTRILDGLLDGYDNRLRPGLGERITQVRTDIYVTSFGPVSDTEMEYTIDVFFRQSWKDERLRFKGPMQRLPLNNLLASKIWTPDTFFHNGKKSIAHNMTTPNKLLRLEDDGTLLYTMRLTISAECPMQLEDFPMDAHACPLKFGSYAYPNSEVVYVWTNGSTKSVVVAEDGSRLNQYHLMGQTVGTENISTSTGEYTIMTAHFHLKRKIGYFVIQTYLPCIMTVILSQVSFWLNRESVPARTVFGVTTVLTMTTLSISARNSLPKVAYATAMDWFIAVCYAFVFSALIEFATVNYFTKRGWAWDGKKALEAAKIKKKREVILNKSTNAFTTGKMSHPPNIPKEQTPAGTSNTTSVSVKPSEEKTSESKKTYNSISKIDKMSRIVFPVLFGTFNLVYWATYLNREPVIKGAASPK
- measurement protocol: Displacement of [3H]Ro-151788 from human GABA-A receptor alpha-5-beta-3-gamma-2 subunits expressed in L(tk-) cells
- Assay type: cell-based
For each of the molecules below, state its Ki.
Numbers only, in nM.

Provide each entry's Ki from the list below.
1. COc1ccc(-c2cc(-c3noc(C)n3)c(=O)n(C)c2-c2ccncc2)cc1
2. Cc1csc(-c2cc(-c3ccncc3)c(-c3ccncc3)n(C)c2=O)n1
3. COc1ccc(-c2cc(-c3cc(C)cs3)c(=O)n(C)c2-c2ccncc2)cc1

1300
270
340

Record `COc1ccc(-c2cc(-c3nc(C)cs3)c(=O)n(C)c2-c2ccncc2)cc1` : what is its Ki with GABA-A receptor; alpha-5/beta-3/gamma-2 (Homo sapiens, UniProt P18507+P28472+P31644)? 320
